# measuredTarget: Tau
# assayRemarks: rat primary cortical neurons, FLIPR, 25 uM ASO
Bases are written 5' to 3'; sugars and linkages follow in the same order, as letters with counts (s phosphorothioate, o phosphodiester; PS: all linkages phosphorothioate). The collection does not say whether C is 5-methylated. l = locked nucleic acid (LNA); d = 2'-deoxy (DNA)
endpointLabel: calcium oscillation score

Check out these entries, answers already filled in.
• ATTTAGTTTTCCCACCC (sugars l2 d13 l2, PS) = 63.4 % of control
• AGTGGAGCCGATCTTG (sugars l3 d10 l3, PS) = 0 % of control
• CCATCAATTTGGAAAGATGA (sugars l3 d14 l3, PS) = 52.3 % of control
• TCCTCCATTGTAACTAC (sugars l2 d11 l4, PS) = 63.9 % of control

Task: Any idea what its calcium oscillation score is? The sequence is GGTCTGGCATGGGCA (sugars l3 d9 l3, PS)
Output: 59 % of control

Task: Please give the result for GCACCAGGAACCTTCCAGAA (sugars l3 d14 l3, PS) too.
Output: 12.8 % of control

Task: Please give the result for GCTTAATAAACACCCTT (sugars l2 d11 l4, PS) too.
Output: 68.5 % of control

Task: Please give the result for TCATCGCTTCCAGTCC (sugars l3 d10 l3, PS) too.
Output: 19.2 % of control

====

# measuredTarget: Tau
# assayRemarks: rat primary cortical neurons, FLIPR, 25 uM ASO
Bases are written 5' to 3'; sugars and linkages follow in the same order, as letters with counts (s phosphorothioate, o phosphodiester; PS: all linkages phosphorothioate). The collection does not say whether C is 5-methylated. l = locked nucleic acid (LNA); d = 2'-deoxy (DNA)
endpointLabel: calcium oscillation score

Task: Any idea what its calcium oscillation score is? The sequence is AACCAGCTAGTGGTGCCACC (sugars l3 d14 l3, PS)
Output: 33 % of control

Task: Please give the result for TAACTCATCAACACCTTTTA (sugars l4 d14 l2, PS) too.
Output: 82.6 % of control

Task: Please give the result for TTTACCAATTTGCCTAA (sugars l4 d9 l4, PS) too.
Output: 43.1 % of control

Task: Please give the result for ACTTTATTTCCAAATTCACTTTTAC (sugars l1 d1 l2 d18 l3, PS) too.
Output: 23.6 % of control

Task: Please give the result for TGCCTAATGAGCCACACTTG (sugars l3 d14 l3, PS) too.
Output: 29.9 % of control

Task: Please give the result for CCCTAAAGTCCCAGG (sugars l3 d9 l3, PS) too.
Output: 72.4 % of control

Task: Please give the result for CTTGTGATGCAGGAG (sugars l3 d9 l3, PS) too.
Output: 87.8 % of control

Task: Please give the result for CTCACCCCAAACAAGAA (sugars l2 d11 l4, PS) too.
Output: 45.1 % of control

Task: Please give the result for ATTTCCAAATTCACTT (sugars l3 d10 l3, PS) too.
Output: 111 % of control

Task: Please give the result for TGGATATAGTTAAGGC (sugars l3 d10 l3, PS) too.
Output: 90.5 % of control

Task: Please give the result for TTCCATCACTTCGAACTCCT (sugars l3 d14 l3, PS) too.
Output: 13.6 % of control

Task: Please give the result for CTAAACCATGATCTTA (sugars l3 d10 l3, PS) too.
Output: 21.1 % of control

Task: Please give the result for AGAAATAAGTGGTAGT (sugars l3 d11 l2, PS) too.
Output: 85.7 % of control

Task: Please give the result for ATCTTATTGCTTTCCAA (sugars l4 d10 l3, PS) too.
Output: 75.3 % of control

====

# measuredTarget: Tau
# assayRemarks: rat primary cortical neurons, FLIPR, 25 uM ASO
Bases are written 5' to 3'; sugars and linkages follow in the same order, as letters with counts (s phosphorothioate, o phosphodiester; PS: all linkages phosphorothioate). The collection does not say whether C is 5-methylated. l = locked nucleic acid (LNA); d = 2'-deoxy (DNA)
endpointLabel: calcium oscillation score

Check out these entries, answers already filled in.
• TTGAAGTCCCGAGCCA (sugars l3 d10 l3, PS) = 2.38 % of control
• TTTGCTTCACACACCAC (sugars l2 d12 l3, PS) = 89 % of control
• TTCTCTCTTAACTTTATTTT (sugars l4 d12 l4, PS) = 93 % of control
• CTACAAACCAGTTACCA (sugars l3 d11 l3, PS) = 69.9 % of control
• CTCAAGAAATGGTTTGCTAC (sugars l3 d14 l3, PS) = 23.8 % of control

Task: Any idea what its calcium oscillation score is? The sequence is CGTCCCAGCGTGATCTTCCA (sugars ldlllddddddddddlldll, PS)
Output: 38.3 % of control

====

# measuredTarget: Tau
# assayRemarks: rat primary cortical neurons, FLIPR, 25 uM ASO
Bases are written 5' to 3'; sugars and linkages follow in the same order, as letters with counts (s phosphorothioate, o phosphodiester; PS: all linkages phosphorothioate). The collection does not say whether C is 5-methylated. l = locked nucleic acid (LNA); d = 2'-deoxy (DNA)
Below is a list of entries, each paired with its recorded calcium oscillation score value.

Check out these entries, answers already filled in.
• TGGGTGATATTGTCCA (sugars l3 d10 l3, PS) = 92.6 % of control
• TCCATCCTAAGTCAAC (sugars l3 d9 l4, PS) = 65.3 % of control
• CTACAAACCAGTTACC (sugars l3 d9 l4, PS) = 107 % of control

Task: Any idea what its calcium oscillation score is? The sequence is CTTCAGGTCTGGCATGGGCA (sugars l3 d14 l3, PS)
Output: 0 % of control

Task: Please give the result for CCCACATAAACTCCTT (sugars l3 d10 l3, PS) too.
Output: 53.4 % of control

Task: Please give the result for CTACCATGTCGATGCT (sugars l3 d10 l3, PS) too.
Output: 99.7 % of control

====

Below is a list of entries, each paired with its recorded calcium oscillation score value.
# measuredTarget: Tau
# assayRemarks: rat primary cortical neurons, FLIPR, 25 uM ASO
Bases are written 5' to 3'; sugars and linkages follow in the same order, as letters with counts (s phosphorothioate, o phosphodiester; PS: all linkages phosphorothioate). The collection does not say whether C is 5-methylated. l = locked nucleic acid (LNA); d = 2'-deoxy (DNA)

Check out these entries, answers already filled in.
* CCAAGAGGCACAAGTC (sugars l3 d10 l3, PS) | 74.3 % of control
* CTCGCGGAAGGTCAGCTTGT (sugars l3 d14 l3, PS) | 2.91 % of control
* GCTCAGCTAAGACCCTCAGG (sugars l3 d14 l3, PS) | 29.4 % of control
* ACCCCGAATTTACACC (sugars l3 d11 l2, PS) | 97.5 % of control

Task: Any idea what its calcium oscillation score is? The sequence is GCCTAATGAGCCACACTTGG (sugars l3 d14 l3, PS)
Output: 16.6 % of control

Task: Please give the result for ACCAATTAACCGAACTGCGA (sugars l3 d14 l3, PS) too.
Output: 22.6 % of control

====

# measuredTarget: Tau
# assayRemarks: rat primary cortical neurons, FLIPR, 25 uM ASO
Bases are written 5' to 3'; sugars and linkages follow in the same order, as letters with counts (s phosphorothioate, o phosphodiester; PS: all linkages phosphorothioate). The collection does not say whether C is 5-methylated. l = locked nucleic acid (LNA); d = 2'-deoxy (DNA)
endpointLabel: calcium oscillation score

* AACTCATCAACACCTTTTAA (sugars l3 d13 l4, PS) | 70.8 % of control
* TCGTCAGCTAGCGTGG (sugars l3 d10 l3, PS) | 55.2 % of control
* TCAAACACACCTTCATTTAC (sugars l2 d14 l4, PS) | 82.2 % of control
* TTACCATCCTATCTTCTA (sugars l2 d13 l3, PS) | 90.3 % of control
* CCTTTGAAAGTCCTTT (sugars l2 d11 l3, PS) | 100 % of control

Task: Any idea what its calcium oscillation score is? The sequence is TACAGTTGGCCCTACCATAT (sugars l3 d14 l3, PS)
Output: 52.4 % of control

Task: Please give the result for TTCTTCCATCCTAAGTCA (sugars l3 d13 l2, PS) too.
Output: 51.7 % of control

Task: Please give the result for TGGAGCCGATCTTGGACTTG (sugars l3 d14 l3, PS) too.
Output: 0 % of control

Task: Please give the result for CGAATTACCTAACCTC (sugars l3 d9 l4, PS) too.
Output: 88.2 % of control

Task: Please give the result for AGGCATGATTGTGGGC (sugars l3 d10 l3, PS) too.
Output: 0 % of control

Task: Please give the result for AGCCCATTTACAATTCA (sugars l2 d11 l4, PS) too.
Output: 76.7 % of control
